- assay remarks: Pharmacokinetics of CD101 after single 30 mg/kg SC (vs IV) dose in monkeys
- Assay type: in vivo
- experimental parameters: both sexes, cynomolgus monkey, plasma, sc, 30 mg/kg, Subcutaneous 30 mg/kg
Starred links: 1 amine or outer side, 2 acyl side, 3 side chain; linkers in the order of their positions; H or OH if unused. Positions of bridges follow the written chain, without caps; N, C: chain ends. Non-standard residues stand in square brackets, D forms with d. Residues, ends and D or L forms follow the SMILES beside them. *: point of attachment. Orn(4R-OH,5R-OCH2CH2NMe3+) = C[N+](C)(C)CCO[C@@H](N[*:3])[C@H](O)C[C@H](N[*:1])C(=O)[*:2]; pTerphenylCO(4''-OnC5H11) = CCCCCOc1ccc(-c2ccc(-c3ccc(C(=O)*)cc3)cc2)cc1; hTyr(3S-OH,4S-OH) = N[C@H](C(=O)O)[C@H](O)[C@@H](O)c1ccc(O)cc1; Pro(3S-OH,4S-Me) = C[C@H]1CN[C@H](C(=O)O)[C@H]1O; Hyp = O=C(O)[C@@H]1C[C@@H](O)CN1
measured metric: half-life

Record CCCCCOc1ccc(-c2ccc(-c3ccc(C(=O)N[C@H]4C[C@@H](O)[C@@H](OCC[N+](C)(C)C)NC(=O)[C@@H]5[C@@H](O)[C@@H](C)CN5C(=O)[C@H]([C@@H](C)O)NC(=O)[C@H]([C@H](O)[C@@H](O)c5ccc(O)cc5)NC(=O)[C@@H]5C[C@@H](O)CN5C(=O)[C@H]([C@@H](C)O)NC4=O)cc3)cc2)cc1 [CD101] ({pTerphenylCO(4''-OnC5H11)}-[Orn(4R-OH,5R-OCH2CH2NMe3+)]T[Hyp][hTyr(3S-OH,4S-OH)]T[Pro(3S-OH,4S-Me)]; lactam 1-C) , field half-life: ~124 h

This collection of values is drawn from patent US20190307843A1.
